- Target Desc: α1A adrenoceptor (Rattus norvegicus, UniProt P43140)
- Construct: from tissue; host or cells: rat submaxillary gland membranes
- Sequence (P43140 whole entry): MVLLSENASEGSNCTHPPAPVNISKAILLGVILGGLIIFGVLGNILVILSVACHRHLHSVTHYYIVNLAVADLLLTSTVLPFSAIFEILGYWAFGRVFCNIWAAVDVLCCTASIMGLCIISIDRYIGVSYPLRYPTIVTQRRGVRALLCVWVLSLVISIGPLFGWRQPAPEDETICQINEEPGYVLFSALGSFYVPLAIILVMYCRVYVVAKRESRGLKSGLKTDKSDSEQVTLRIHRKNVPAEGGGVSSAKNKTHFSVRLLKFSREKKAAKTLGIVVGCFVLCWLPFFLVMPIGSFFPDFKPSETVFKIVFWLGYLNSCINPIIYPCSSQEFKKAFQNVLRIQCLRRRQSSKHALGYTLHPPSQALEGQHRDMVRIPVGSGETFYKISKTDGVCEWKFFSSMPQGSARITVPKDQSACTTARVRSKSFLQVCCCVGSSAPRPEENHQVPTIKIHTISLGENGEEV
- Protocol Text: Receptor binding assay, displacement of [3H]prazosin, rat submaxillary membranes
- Test Parameters: ratio of Ki α1B (rat liver) / α1A (rat submaxillary)
Readout Label: Selectivity α1B/α1A

>>> assay_result("Cl.O=C1C2CC=CCC2C(=O)N1CCCN1CCN(c2cccc(C(F)(F)F)c2)CC1 (stereo not shown)")
2
>>> assay_result("CCCOc1ccccc1N1CCN(CCCN2C(=O)C3CC=CCC3C2=O)CC1.Cl (stereo not shown)")
117
>>> assay_result("Cc1ccc(N2CCN(CCCN3C(=O)C4CC=CCC4C3=O)CC2)cc1Cl.Cl (stereo not shown)")
0.78
>>> assay_result("Cc1cccc(C)c1N1CCN(CCCN2C(=O)C3CC=CCC3C2=O)CC1.Cl (stereo not shown)")
2.4

====

- Target Desc: α1A adrenoceptor (Rattus norvegicus, UniProt P43140)
- Construct: from tissue; host or cells: rat submaxillary gland membranes
- Protocol Text: Receptor binding assay, displacement of [3H]prazosin, rat submaxillary membranes
- Test Parameters: [3H]prazosin displacement, rat submaxillary membranes; read-out: α1A (Rat submaxillary) Ki
Mark TRUE only for Ki values smaller than 9 nM; exact matches and larger values are FALSE.

>>> answer_label("Cl.O=C1C2CC=CCC2C(=O)N1CCCN1CCN(c2ccc(F)cc2)CC1 (stereo not drawn) [Compound 04, hydrochloride]")
"FALSE"
>>> answer_label("CC(C)Oc1ccccc1N1CCN(CCCN2C(=O)C3CC=CCC3C2=O)CC1.Cl (stereo not drawn) [Compound 23, hydrochloride]")
"TRUE"
>>> answer_label("CCOc1ccccc1N1CCN(C(C)CCN2C(=O)C3CC=CCC3C2=O)CC1.Cl (stereo not drawn) [Compound 31, hydrochloride]")
"TRUE"
>>> answer_label("Cl.O=C1C2CC=CCC2C(=O)N1CCCN1CCN(c2ccccc2)CC1 (stereo not drawn) [Compound 13, hydrochloride]")
"TRUE"
>>> answer_label("COc1ccccc1N1CCN(C(C)CCN2C(=O)C3CC=CCC3C2=O)CC1.Cl (stereo not drawn) [Compound 29, hydrochloride]")
"TRUE"
>>> answer_label("Cc1cccc(C)c1N1CCN(CCCN2C(=O)C3CC=CCC3C2=O)CC1.Cl (stereo not drawn) [Compound 22, hydrochloride]")
"FALSE"
>>> answer_label("CCOc1ccccc1N1CCN(CCCN2C(=O)C3CC=CCC3C2=O)CC1.Cl (stereo not drawn) [Compound 11, hydrochloride]")
"TRUE"
>>> answer_label("Cl.O=C1C2CC=CCC2C(=O)N1CCCN1CCN(CC=Cc2ccccc2)CC1 (stereo not drawn) [Compound 15, hydrochloride]")
"FALSE"
>>> answer_label("Cc1ccc(Cl)cc1N1CCN(CCCN2C(=O)C3CC=CCC3C2=O)CC1.Cl (stereo not drawn) [Compound 12, hydrochloride]")
"TRUE"
>>> answer_label("COc1cc(F)ccc1N1CCN(CCCN2C(=O)C3CC=CCC3C2=O)CC1.Cl (stereo not drawn) [Compound 18, hydrochloride]")
"FALSE"
>>> answer_label("Cl.O=C1C2CC=CCC2C(=O)N1CCCN1CCN(Cc2ccccc2)CC1 (stereo not drawn) [Compound 14, hydrochloride]")
"FALSE"
>>> answer_label("COc1ccccc1N1CCN(CC(C)CN2C(=O)C3CC=CCC3C2=O)CC1.Cl (stereo not drawn) [Compound 30, hydrochloride]")
"FALSE"
>>> answer_label("COc1ccc(OC)c(N2CCN(CCCN3C(=O)C4CC=CCC4C3=O)CC2)c1.Cl (stereo not drawn) [Compound 26, hydrochloride]")
"FALSE"
>>> answer_label("COc1cccc(O)c1N1CCN(CCCN2C(=O)C3CC=CCC3C2=O)CC1.Cl (stereo not drawn) [Compound 28, hydrochloride]")
"FALSE"
>>> answer_label("CCCOc1ccccc1N1CCN(CCCN2C(=O)C3CC=CCC3C2=O)CC1.Cl (stereo not drawn) [Compound 24, hydrochloride]")
"TRUE"

These data points were gathered from patent US6914064B2.
